Biological target: recombinant human HDAC8 (Homo sapiens)
Construct: made in house; host or cells: insect cells
Sequence (Q9BY41 whole entry): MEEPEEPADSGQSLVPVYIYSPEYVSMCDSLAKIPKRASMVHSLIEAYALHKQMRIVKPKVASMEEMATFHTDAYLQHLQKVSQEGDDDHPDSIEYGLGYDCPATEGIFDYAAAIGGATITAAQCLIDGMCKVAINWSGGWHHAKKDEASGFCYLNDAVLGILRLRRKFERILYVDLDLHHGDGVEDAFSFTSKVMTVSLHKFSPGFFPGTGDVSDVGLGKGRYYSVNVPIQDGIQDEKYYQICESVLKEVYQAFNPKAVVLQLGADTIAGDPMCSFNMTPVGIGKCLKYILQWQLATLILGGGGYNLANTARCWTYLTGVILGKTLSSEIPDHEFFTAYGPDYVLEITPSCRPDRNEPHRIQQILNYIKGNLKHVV
Assay: HDAC8 inhibition: recombinant HDAC8 fluorometric assay
Assay type: biochemical
Settings: recombinant human HDAC8, substrate Ac-Arg-His-Lys-Lys(ε-acetyl)-AMC; read-out: HDAC8 IC50
Recorded Endpoint: IC50 (µM)

Sample answers from the record:
molecule="CC(C)c1ccc(N2CCC(Nc3ccc(C(=O)NO)cc3)C2=O)cc1 (stereo not drawn)" recorded_endpoint=IC50 numeric_readout=3.18
molecule="O=C(NO)c1ccc(NC2CCN(C(=O)c3ccc(F)cc3)C2)cc1 (stereo not drawn)" recorded_endpoint=IC50 numeric_readout=0.9
molecule="CC1(Nc2ccc(C(=O)NO)cc2)C(=O)N(c2ccc(Cl)cc2)c2ccc(F)cc21 (stereo not drawn)" recorded_endpoint=IC50 numeric_readout=2.08
molecule="O=C(NO)c1ccc(NC2CCN(c3cccc(F)c3)C2=O)cc1 (stereo not drawn)" recorded_endpoint=IC50 numeric_readout=1.09
molecule="CC(C)(c1cccc2ccccc12)N1CCC(Nc2ccc(C(=O)NO)cc2)C1=O (stereo not drawn)" recorded_endpoint=IC50 numeric_readout=1.05

[I] O=C(NO)c1ccc(NC2CCN(c3cccc(-c4cnco4)c3)C2=O)cc1 (stereo not drawn)
[II] O=C(NO)c1ccc(NC2CCN(c3cccc(-n4cccc4)c3)C2=O)cc1 (stereo not drawn)
Exercise: Between I and II , which one has the lower reported IC50 value? # reply format: chosen label
Solution: I

[a] O=C(NO)c1ccc(NC2CCN(c3cccc(C(F)(F)F)c3)C2=O)cc1 (stereo not drawn)
[b] CC1(Nc2ccc(C(=O)NO)cc2)C(=O)N(CCc2ccccc2)c2ccccc21 (stereo not drawn)
Exercise: Between a and b , which one has the lower reported IC50 value? # reply format: chosen label
Solution: b
